target-or-system: T1, human IL-11 (human, UniProt P20809 22-199)
T1 construct: bought from Invigate; also called hIL-11; hIL11
T1 sequence: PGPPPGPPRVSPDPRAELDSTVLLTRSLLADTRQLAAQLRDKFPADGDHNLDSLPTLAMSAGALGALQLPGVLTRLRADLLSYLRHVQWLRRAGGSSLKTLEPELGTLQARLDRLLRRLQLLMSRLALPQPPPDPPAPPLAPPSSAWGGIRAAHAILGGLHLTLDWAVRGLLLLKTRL
experimental-details: SPR; limit told of 12 single-site germlining mutants; antigen not given, SPR run on human and mouse IL-11
pKd: −log10 of the molar value.
The reader will find reported pKd values listed item by item below.

INSERT INTO measurements (binder, experimental_result) VALUES
  ('TPP-31293 (antibody, IgG4, V domains shown, hIgG4 SPLE, lambda) VH: EVQLLESGGGLVQPGGSLRLSCAASGFTFSHYDMNWVRQAPGKGLEWVGVISYDGSNKFYADFVKGRFTISRDNSKNTLYLQMNSLRAEDTAVYYCARTPGSHFDYWGQGTLVTVSS VL: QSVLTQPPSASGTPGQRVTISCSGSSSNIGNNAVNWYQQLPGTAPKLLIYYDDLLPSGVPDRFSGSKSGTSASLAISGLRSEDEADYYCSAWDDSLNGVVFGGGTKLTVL', '> 7.72');

Next, consider the following binder.
Asked: pKd lookup needed for TPP-31278 (antibody, IgG4, V domains shown, hIgG4 SPLE, lambda) VH: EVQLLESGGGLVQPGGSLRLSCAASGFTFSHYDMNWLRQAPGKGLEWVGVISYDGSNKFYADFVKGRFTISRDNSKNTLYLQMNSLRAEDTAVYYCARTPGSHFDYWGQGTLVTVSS VL: QSVLTQPPSASGTPGQRVTISCSGSSSNIGNNYVNWYQQLPGTAPKLLIYYDDLLPSGVPDRFSGSKSGTSASLAISGLRSEDEADYYCSAWDDSLNGVVFGGGTKLTVL , thanks.
Given back: > 7.72
